From: ChEMBL document CHEMBL1799965

Listed here are molecules together with their documented solubility.
experiment: Solubility of the compound in simulated fasted intestinal fluid; assay type: physicochemical; conditions: simulated gi fluid
ENDPOINT: solubility (µM)

{"SMILES CODE": "CC(C)(C)c1ccc(N)nc1", "ENDPOINT": "solubility", "UNIT TAG": "µM", "COMPARISON OPERATOR": "=", "RESULT NUMBER": 72}
{"SMILES CODE": "CC(C)(C)c1ccc(N)cc1", "ENDPOINT": "solubility", "UNIT TAG": "µM", "COMPARISON OPERATOR": "<", "RESULT NUMBER": 5}

###

assay: Solubility of the compound in buffer at pH 6.8; type: physicochemical
This listing pairs molecules with measured solubility.
ENDPOINT: solubility (µM)

{"SMILES CODE": "CC(C)(C)c1ccc(N)nc1", "COMPARISON OPERATOR": "=", "RESULT NUMBER": 59}
{"SMILES CODE": "CC(C)(C)c1ccc(N)cc1", "COMPARISON OPERATOR": "<", "RESULT NUMBER": 5}
